For each entry below, report its apparent KD of MS2 coat protein value.
# System: MS2 coat protein
# protocol_description: apparent KD of MS2 coat protein; designed switch direction (-1 OFF switch, 1 ON switch): -1; higher = weaker reporter binding
# measurement_context: input ligand: FMN 200 uM
// return numeric value only (unit: nM, not printed)

Exercise: Reported apparent KD of MS2 coat protein for ACCUCACUUGAGGAUCACCCAAGUCAGGAUAUACUCGUUUGCCGAAAGACGCGGCAUUGUAGAAGGGACGGGUU [Raortiza] (Eterna round: R97, puzzle: Exclusion 1) : what is it?
Solution: 26.6

Exercise: apparent KD of MS2 coat protein lookup needed for AGCUGUGGCCGAGGAUAUCCAACCUUAAAUACCGACGUAUAGUCGGACAUGAGGAUCACCCAUGUGGAGAAGGCGGUCUCAGCA [Eli eng2 - 039] (Eterna round: R96, puzzle: Exclusion NG 2) , thanks.
Solution: 62.5

Exercise: What apparent KD of MS2 coat protein value was documented for this sequence, AAAUUGUCAGGAUAUUGUUAGUUUAGUUGUUUGUAUUAGUUCGAGAAGGGACAUGAGGAUCACCCAUGUGAAAA [Ex4 #69] (Eterna round: R97, puzzle: Exclusion 4) ?
Solution: 38.3

Exercise: Requested read-out: apparent KD of MS2 coat protein. Entry: CCAAUGUAAGGAUAUCGUGCAAGUUUCAAAAGAGGCUUGUGCGAGAAGGUACAUGAGGAUCACCCAUGUAGGUU [Omei Ex4 B2] (Eterna round: R97, puzzle: Exclusion 4)
Solution: 340

Exercise: Consider the sequence CGUCAGUGAGGAUAUGGUAACGUUUACAUGAGGAUCACCCAUGUUUCAUGGGACUAGAGACUAGAAGGCACUGACG [JR_Ex5_Sub030] (Eterna round: R97, puzzle: Exclusion 5) and give its measured apparent KD of MS2 coat protein.
Solution: 439

Exercise: Any idea what its apparent KD of MS2 coat protein is? The sequence is CAGCUGAAAGUGAGGAUAUCUAGAGCCUCGGCUCUAGAGAAGGCACAUGAGGAUCACCCAUGUGAUCACAGCUG [BmEx4/7-A2] (Eterna round: R97, puzzle: Brourd's mod of Exclusion 4)
Solution: 1320

Exercise: I'd like to know its apparent KD of MS2 coat protein. The sequence in question is UGUACUAACACGAUAGUGUUAGUACUAUAAGCUUGUGUUACAUGAGGAUCACCCAUGUCCUCAUAAGCUCGUCUUGA [Mat - Sensor v3 - Turn-off var 2 - D93] (Eterna round: R96, puzzle: Sensor v3, turn-off variant 2)
Solution: 36.8

Exercise: What measured apparent KD of MS2 coat protein goes with GGCAGUACAGAGGAUAUCUGGACCUACAGGAAUAGAGAAGGUUGUACAUGAGGAUCACCCAUGUCGACACUCAG [Eternabot (Original) Solution 11] (Eterna round: R97, puzzle: Exclusion 6) ?
Solution: 13.2

Exercise: Entry under review: CAGUACUGAGGAUAUACAUGAGGAUCACCCAUGUCUUCCAGCUAGGAUACUAGCAAAUGUAGAAGGCAGUACUG [Mat - Exclusion 3 - Eli Mod - D9] (Eterna round: R97, puzzle: Exclusion 3) . Reported apparent KD of MS2 coat protein?
Solution: 428

====

# Test system: MS2 coat protein
# protocol_description: apparent KD of MS2 coat protein; designed switch direction (-1 OFF switch, 1 ON switch): 1; higher = weaker reporter binding
# measurement_context: input ligand: microRNA oligo, concentration not stated
The label depends only on apparent KD of MS2 coat protein: true if it is at least 0.1 µM, false if it is smaller.

Exercise: Could you please find out whether ACUCUCACAGUAGGAUAUGUAGGAUAUGCCUACAUGAGGAUCACCCAUGUAAACAUGGCAGAAGGAUAGAAGGACUUACAUGGG [pwkr ssNG2 2FMN + 1F5.4] (Eterna round: R96, puzzle: Same State NG 2) has apparent KD of MS2 coat protein that meets 0.1 µM or exceeds it?
Solution: false

Exercise: Please check the record AAUUAAGAUCAAGGAUAUCACGUCGAAUAGACGUGAGAAGGUGAUCAUAACAUGAGGAUCACCCAUGUAUUACAUGAAUUAAUU [SSNG1/2-B1] (Eterna round: R96, puzzle: Same State NG 1) and state if its apparent KD of MS2 coat protein is at or above 0.1 µM.
Solution: true

Exercise: Hi team, for CUUUCUCUUGCAGGAUAUCCUAGUCUUCGGUUAGGAGAAGGGCAAGGAAACUUGCUAAGCAAGUCUGUAACAGAGAUCCUUCCU [pwkr ssNG1 F9.2] (Eterna round: R96, puzzle: Same State NG 1) , is the recorded apparent KD of MS2 coat protein at or above 0.1 µM?
Solution: false

Exercise: hey, is apparent KD of MS2 coat protein for this one >= 0.1 µM? UUAUCUCUUACAUGAGGAUCACCCAUGUUUUUAUGUCUUAGACAGGAUAUAGUAGUCUCGUUUUACUAGAAGGGUCUUUUUAUU [JR_SSNG3_Sub019] (Eterna round: R96, puzzle: Same State NG 3)
Solution: false

Exercise: Could you please find out whether CCCGCGUUUCGCGCCUACAUGAGGAUCACCCAUGUUUGUAGGCAGGAUAUCGUCCGCUCUGCGGGCGAGAAGGGCUGUCGUGGU [salish99_SSNG3_R04_030] (Eterna round: R96, puzzle: Same State NG 3) has apparent KD of MS2 coat protein that meets 0.1 µM or exceeds it?
Solution: false

Exercise: Reported apparent KD of MS2 coat protein reaches at least 0.1 µM for UUAAUGAAGUAAGGAUAUACAUGAGGAAUUCUCGUAGAAGGUACUAUACAUGAGGAUCACCCAUGUGCCGGUCAGAAGACUGGA [Mat - Same State NG 1 - JL mod - D11] (Eterna round: R96, puzzle: Same State NG 1) ?
Solution: true

Exercise: Reported apparent KD of MS2 coat protein at or above 0.1 µM? AUAGUUUCCGAAGGAUAUGAUGAGGAUCACCCAUCAGAAGGUUGGCUAUUGGGCUGACAUGAGGAUCACCCAUGUUCUGGAGUU (Eterna round: R96, puzzle: Same State NG 1)
Solution: false

Exercise: For this sequence, is measured apparent KD of MS2 coat protein 0.1 µM or higher? GGAUGAUAGACAGGAUAUUGAAUGUAAAUAGGACAAGAAGGGUCAAUGAUAUAAACGACCAGUUACAUGAGGAUCACCCAUGUU [JR_SSNG1_Sub023] (Eterna round: R96, puzzle: Same State NG 1)
Solution: false

Exercise: Is it the case that AAUUUAAUACAUGAGGAUCACCCAUGUAAAUUAAUUAAGAUCAAGGAUAUCAGCUCGAUUAGAGCUGAGAAGGUGAUCACAUGU [SSNG3/19-A2] (Eterna round: R96, puzzle: Same State NG 3) has apparent KD of MS2 coat protein reaching or exceeding 0.1 µM?
Solution: true

Exercise: Decide: is the reported value of apparent KD of MS2 coat protein for UCGGGCGUACUUGCUGACAUGAGGAUCACCCAUGUCCUUGGGCAGGAUAUGGUUCCGUUUCGGUUCCAGAAGGUCCUGGCUGCU [salish99_SSNG3_r04_318] (Eterna round: R96, puzzle: Same State NG 3) equal to or greater than 0.1 µM?
Solution: false

Exercise: Could you please find out whether GCUCGUAUCACAACCGACAUGAGGAUCACCCAUGUAUGUUGGUAGGAUAUCUAUAUUAAGGAUAUAGAGAAGGGCCGAACGAGC [SameState NG3 #13] (Eterna round: R96, puzzle: Same State NG 3) has apparent KD of MS2 coat protein that meets 0.1 µM or exceeds it?
Solution: false

Exercise: apparent KD of MS2 coat protein >= 0.1 µM for CUGAGCAGUCAAGGAUAUCACGUCGAUUAGACGUGAGAAGGUGAUCAUUACAUGAGGAUCACCCAUGUGUUACAUGGAGCUCAG [Brourd's SSNG1/1-A2 mod 5] (Eterna round: R96, puzzle: Same State NG 1) ?
Solution: false

Exercise: Item GUGCGAGUGCCACAGGAUAUACGUGGAUCGACAUGAGGAUCACCCAUGUAUAUCCUAAUAAUUGCGUAGAAGGGUGGUCAGUCGG [Inzage] (Eterna round: R96, puzzle: Same State 2) with apparent KD of MS2 coat protein of 0.1 µM or above?
Solution: true

Exercise: Reported apparent KD of MS2 coat protein at or above 0.1 µM? AUUUUUGAUGCAGGAUAUGAUUAACAUGAGGAUCACCCAUGUGGUGUUGUGAGUAAGGAGAGUGAUCAGAAGGGCAUUUUUUUU [JMF's solution 93] (Eterna round: R96, puzzle: Same State NG 2)
Solution: true

Exercise: In plain terms: is recorded apparent KD of MS2 coat protein at least 0.1 µM for GGUGGGUUACUACCCACACAUGAGGAUCACCCAUGUAUUGGGAAGGAUAUGGUACCUAUUUGGUACCAGAAGGUCCUGAUGGUG [SS-NG3-LRO15] (Eterna round: R96, puzzle: Same State NG 3) ?
Solution: true

Exercise: Hi team, for GAGGGCGAAAGCGACAUGAGGAUCACCCAUGUCCUCGGAGGACAGGAUAUCCGGCAAAAGCCGAAGGAGAAGGGUCGAAAAGAA [AK SSNG3-V2-37] (Eterna round: R96, puzzle: Same State NG 3) , is the recorded apparent KD of MS2 coat protein at or above 0.1 µM?
Solution: false

Exercise: Please check the record AUUGCUUUCGCAGGAUAUGAUGCGAAAAUUGCGUCAGAAGGGUGGAGUAUCUCAUUGCAAGAGGACAUGAGGAUCACCCAUGUC [SameState NG1 #87] (Eterna round: R96, puzzle: Same State NG 1) and state if its apparent KD of MS2 coat protein is at or above 0.1 µM.
Solution: true
